# experiment-description: clinical
# measurement-parameters: human, in vivo, iv, CL

{"compound": "CCCCCc1cc(O)c2c(c1)OC(C)(C)[C@@H]1CCC(C)=C[C@@H]21", "clearance (mL/min/kg)": 3.2}
{"compound": "CCOc1ccc2ccccc2c1C(=O)N[C@@H]1C(=O)N2[C@@H]1SC(C)(C)[C@@H]2C(=O)O", "clearance (mL/min/kg)": 3.3}
{"compound": "O=C(O)C(Cl)Cl", "clearance (mL/min/kg)": 5.3}
{"compound": "CCC1(c2ccccc2)C(=O)NC(=O)NC1=O", "clearance (mL/min/kg)": 0.063}
{"compound": "CCCCNc1cc(C(=O)O)cc(S(N)(=O)=O)c1Oc1ccccc1 [BUMETANIDE]", "clearance (mL/min/kg)": 2.5}
{"compound": "C[C@@](O)(/C=C/[C@H]1CC=CC(=O)O1)[C@@H](C[C@@H](O)\\C=C/C=C\\C=C\\CO)OP(=O)(O)O", "clearance (mL/min/kg)": 1.2}
{"compound": "COc1cccc2c1C(=O)c1c(O)c3c(c(O)c1C2=O)C[C@@](O)(C(=O)CO)C[C@@H]3O[C@H]1C[C@H](N)[C@H](O)[C@H](C)O1", "clearance (mL/min/kg)": 15}
{"compound": "COc1cc2c(cc1O)CCN[C@]21CS[C@@H]2c3c(OC(C)=O)c(C)c4c(c3[C@H](COC1=O)N1[C@@H]2[C@H]2c3c(cc(C)c(OC)c3O)C[C@@H]([C@@H]1O)N2C)OCO4", "clearance (mL/min/kg)": 12}
{"compound": "N#Cc1ccc2c(c1)CN(S(=O)(=O)c1cccs1)[C@H](Cc1ccccc1)CN2Cc1cnc[nH]1", "clearance (mL/min/kg)": 9.6}
{"compound": "COc1ccc(C(=O)Nc2ccccc2CCC2CCCCN2C)cc1 (stereo not drawn) [ENCAINIDE]", "clearance (mL/min/kg)": 13}
{"compound": "CC(NCCc1ccc(O)cc1)C(O)c1ccc(O)cc1 (stereo not drawn)", "clearance (mL/min/kg)": 31}
{"compound": "Cc1ccc(-c2nc3ccc(C)cn3c2CC(=O)N(C)C)cc1", "clearance (mL/min/kg)": 4.3}
{"compound": "CCN(CC)CCNC(=O)c1ccc(NC(C)=O)cc1 [ACECAINIDE]", "clearance (mL/min/kg)": 4}
{"compound": "C[C@]12CCC(=O)C=C1CC[C@@H]1[C@@H]2[C@@H](O)C[C@@]2(C)[C@H]1CC[C@]2(O)C(=O)CO [HYDROCORTISONE]", "clearance (mL/min/kg)": 5.7}
{"compound": "CCOC(=O)[C@]1(c2ccccc2)CCC=C[C@H]1NC", "clearance (mL/min/kg)": 9.9}
{"compound": "CO[C@@]1(NC(=O)CSCC#N)C(=O)N2C(C(=O)O)=C(CSc3nnnn3C)CS[C@@H]21", "clearance (mL/min/kg)": 1.5}
{"compound": "Cc1c(OCC(F)(F)F)ccnc1C[S+]([O-])c1nc2ccccc2[nH]1 (stereo not drawn)", "clearance (mL/min/kg)": 4.4}
{"compound": "O.O=P(O)(O)C(O)(Cn1ccnc1)P(=O)(O)O", "clearance (mL/min/kg)": 2.2}
{"compound": "C=CC[N+]12CC[C@@]34c5ccccc5N5/C=C6/[C@H]7C[C@H]8[C@@]9(CC[N@@+]8(CC=C)C/C7=C/CO)c7ccccc7N(/C=C(/[C@@H](C[C@@H]31)/C(=C\\CO)C2)[C@H]54)[C@@H]69 (stereo partly drawn)", "clearance (mL/min/kg)": 1.3}
{"compound": "C[C@H](/C=C/[C@H](C)C(C)(C)O)[C@H]1CC[C@H]2/C(=C/C=C3C[C@@H](O)C[C@H](O)C3)CCC[C@]12C", "clearance (mL/min/kg)": 0.89}
{"compound": "C[C@@H]1CN(c2c(F)c(N)c3c(=O)c(C(=O)O)cn(C4CC4)c3c2F)C[C@H](C)N1", "clearance (mL/min/kg)": 2.7}
{"compound": "O=C1CCc2ccc(OCCCCN3CCN(c4cccc(Cl)c4Cl)CC3)cc2N1", "clearance (mL/min/kg)": 0.83}
{"compound": "CC[C@H]1OC(=O)[C@H](C)[C@@H](O[C@H]2C[C@@](C)(OC)[C@@H](O)[C@H](C)O2)[C@H](C)[C@@H](O[C@@H]2O[C@H](C)C[C@H](N(C)C)[C@H]2O)[C@](C)(O)C[C@@H](C)CN(C)[C@H](C)[C@@H](O)[C@]1(C)O", "clearance (mL/min/kg)": 10}
{"compound": "C[C@@H](CN1CC(=O)NC(=O)C1)N1CC(=O)NC(=O)C1", "clearance (mL/min/kg)": 3.1}
{"compound": "C[C@H]1O[C@@H](O[C@H]2[C@@H](O)C[C@H](O[C@H]3[C@@H](O)C[C@H](O[C@H]4CC[C@@]5(C)[C@H](CC[C@@H]6[C@@H]5CC[C@]5(C)[C@@H](C7=CC(=O)OC7)CC[C@]65O)C4)O[C@@H]3C)O[C@@H]2C)C[C@H](O)[C@@H]1O", "clearance (mL/min/kg)": 0.043}
{"compound": "O=C(NCCN1CCOCC1)c1ccc(Cl)cc1 [MOCLOBEMIDE]", "clearance (mL/min/kg)": 10}
{"compound": "C#C[C@]1(OS(=O)(=O)O)CC[C@H]2[C@@H]3CCc4cc(O)ccc4[C@H]3CC[C@@]21C", "clearance (mL/min/kg)": 1.3}
{"compound": "Nc1nc(/C(=N/O)C(=O)N[C@@H]2C(=O)N3C(C(=O)O)=C(/C=C4\\CCN([C@@H]5CCNC5)C4=O)CS[C@H]23)ns1", "clearance (mL/min/kg)": 1.5}
